Each entry below lists one item and its recorded MTT toxicity assay, cell viability (between brackets), B16F10 value.
- Test system: B16F10 cells
- Assay: MTT cell viability assay of transfected B16F10 cells
- Format: cell-based, mouse
- Setup Conditions: 100% being cell viability of untreated cells; 24 h after addition of transfection agents
Output spec: scalar in %, unitless text.

Compound	Reported Measurement
CCCCCCCCCCCCCCCC(=O)NCCN(CCNC(=O)CCCCCCCCCCCCCCC)C(=O)/C=C\C(=O)N[C@@H](CCCNC(=N)N)C(=O)N[C@@H](CCCNC(=N)N)C(=O)N[C@@H](CCCNC(=N)N)C(N)=O.O=C(O)C(F)(F)F.O=C(O)C(F)(F)F.O=C(O)C(F)(F)F [Compound A3-Sp2-P]	93
CCCCCCCCCCCCCCCC(=O)NCCN(CCNC(=O)CCCCCCCCCCCCCCC)C(=O)CCC(=O)N[C@@H](CCCNC(=N)N)C(=O)N[C@@H](CCCNC(=N)N)C(N)=O.O=C(O)C(F)(F)F.O=C(O)C(F)(F)F [Compound A2-Sp1-P]	98
CCCCCCCCCCCCCCCC(=O)NCCN(CCNC(=O)CCCCCCCCCCCCCCC)C(=O)/C=C\C(=O)N[C@@H](CCCNC(=N)N)C(=O)N[C@@H](CCCNC(=N)N)C(N)=O.O=C(O)C(F)(F)F.O=C(O)C(F)(F)F [Compound A2-Sp2-P]	99

Attention now shifts to the item below.
input: Reported MTT toxicity assay, cell viability (between brackets), B16F10, compound CCCCCCCCCCCCCCCC(=O)NCCN(CCNC(=O)CCCCCCCCCCCCCCC)C(=O)CCC(=O)N[C@@H](CCCNC(=N)N)C(=O)N[C@@H](CCCNC(=N)N)C(=O)N[C@@H](CCCNC(=N)N)C(N)=O.O=C(O)C(F)(F)F.O=C(O)C(F)(F)F.O=C(O)C(F)(F)F [Compound A3-Sp1-P] : ____
output: 89
